molecules and their reported Plant response rating, Soybean
Tested on: soybean (Glycine max)
assay_summary: Test C preemergence
Assay type: in vivo
run_conditions: preemergence, Rate 62 g/ha, scale 0 to 100
The response must contain the number and no unit.

Consider the reported Plant response rating, Soybean for these molecules:
>  <molecule>
CCC(CC)c1ccn(C2OCN(c3cccc(OC(F)F)c3)C2=O)n1 (centres unmarked) [Compound 131]

>  <value_type>
Plant response rating, Soybean

>  <value_measured>
0

$$$$
>  <molecule>
COc1cc(N2CCC(n3ccc(C(C)(C)C)n3)C2=O)ccc1Cl (centres unmarked) [Compound 117]

>  <value_type>
Plant response rating, Soybean

>  <value_measured>
100

$$$$
>  <molecule>
COc1cccc(N2CCC(n3ccc(C(C)(C)C)n3)C2=O)c1 (centres unmarked) [Compound 87]

>  <value_type>
Plant response rating, Soybean

>  <value_measured>
0

$$$$
>  <molecule>
CCCC(C)c1ccn(C2SCN(c3cccc(C(F)(F)F)c3)C2=O)n1 (centres unmarked) [Compound 92]

>  <value_type>
Plant response rating, Soybean

>  <value_measured>
0

$$$$
>  <molecule>
CCCOc1cc(N2CCC(n3ccc(C(C)(C)C)n3)C2=O)ccc1C (centres unmarked) [Compound 107]

>  <value_type>
Plant response rating, Soybean

>  <value_measured>
30

$$$$
>  <molecule>
COc1cc(N2CCC(n3ccc(C(C)C)n3)C2=O)ccc1C (centres unmarked) [Compound 85]

>  <value_type>
Plant response rating, Soybean

>  <value_measured>
20

$$$$
>  <molecule>
CCCC(C)c1ccn(C2CCN(c3ccc(Cl)c(OC)c3)C2=O)n1 (centres unmarked) [Compound 121]

>  <value_type>
Plant response rating, Soybean

>  <value_measured>
0

$$$$
>  <molecule>
CC(C)(C)c1ccn(C2CCN(c3cccc(SC(F)(F)F)c3)C2=O)n1 (centres unmarked) [Compound 93]

>  <value_type>
Plant response rating, Soybean

>  <value_measured>
0

$$$$
>  <molecule>
CCOc1cccc(N2CCC(n3ccc(C(C)(C)C)n3)C2=O)c1 (centres unmarked) [Compound 130]

>  <value_type>
Plant response rating, Soybean

>  <value_measured>
30

$$$$
>  <molecule>
CCC(CC)c1ccn(C2CCN(c3cccc(OC(C)C)c3)C2=O)n1 (centres unmarked) [Compound 84]

>  <value_type>
Plant response rating, Soybean

>  <value_measured>
0

$$$$

The molecule identified as CCC(CC)c1ccn(C2CCN(c3ccc(F)c(C(F)(F)F)c3)C2=O)n1 (centres unmarked) [Compound 144] registered its Plant response rating, Soybean at 50

The molecule identified as CC(C)OC(=O)c1cccc(N2CCC(n3ccc(C(C)(C)C)n3)C2=O)c1 (centres unmarked) [Compound 124] registered its Plant response rating, Soybean at 0

The molecule identified as CCC(CC)c1ccn(C2CCN(c3cccc(OC)c3)C2=O)n1 (centres unmarked) [Compound 96] registered its Plant response rating, Soybean at 0

The molecule identified as CCC(CC)c1ccn(C2CCN(c3ccc(Cl)c(OC)c3)C2=O)n1 (centres unmarked) [Compound 118] registered its Plant response rating, Soybean at 40

###

Tested on: johnsongrass (Sorghum halepense)
assay_summary: Test C preemergence
Format: in vivo
run_conditions: preemergence, Rate 500 g/ha, visual evaluation after 12 to 14 days
value_type: Plant response rating (0 to 100), Johnsongrass
The response must contain the number and no unit.

Consider the reported Plant response rating (0 to 100), Johnsongrass for these compounds:
>  <compound>
CCC(CC)c1ccn(C2CCN(c3ccc(F)c(C(F)(F)F)c3)C2=O)n1 (stereo not shown)

>  <value_measured>
100

$$$$
>  <compound>
COc1cccc(N2CCC(n3ccc(C(C)(C)C)n3)C2=O)c1 (stereo not shown)

>  <value_measured>
100

$$$$
>  <compound>
CCCC(C)c1ccn(C2CCN(c3cccc(OCC)c3)C2=O)n1 (stereo not shown)

>  <value_measured>
100

$$$$
>  <compound>
CC1(c2ccn(C3OCN(c4cccc(C(F)(F)F)c4)C3=O)n2)CC1 (stereo not shown)

>  <value_measured>
100

$$$$
>  <compound>
CCC(C)c1ccn(C2CCN(c3ccc(C)c(OC)c3)C2=O)n1 (stereo not shown)

>  <value_measured>
70

$$$$
>  <compound>
CCCC(C)c1ccn(C2SCN(c3cccc(C(F)(F)F)c3)C2=O)n1 (stereo not shown)

>  <value_measured>
100

$$$$
>  <compound>
CCC(CC)c1ccn(C2CCN(c3ccc(Br)c(OC)c3)C2=O)n1 (stereo not shown)

>  <value_measured>
90

$$$$
>  <compound>
CCCC(C)c1ccn(C2OCN(c3cccc(OC(F)(F)F)c3)C2=O)n1 (stereo not shown)

>  <value_measured>
100

$$$$

The compound identified as CC(C)c1cccc(N2CCC(n3ccc(C(C)(C)C)n3)C2=O)c1 (stereo not shown) registered its Plant response rating (0 to 100), Johnsongrass at 25

The compound identified as CCC(C)c1ccn(C2CCN(c3ccc(F)c(C(F)(F)F)c3)C2=O)n1 (stereo not shown) registered its Plant response rating (0 to 100), Johnsongrass at 90

The compound identified as CCCC(C)c1ccn(C2OCN(c3cccc(OC(F)F)c3)C2=O)n1 (stereo not shown) registered its Plant response rating (0 to 100), Johnsongrass at 100

The compound identified as COc1cc(N2CCC(n3ccc(C(C)(C)C)n3)C2=O)ccc1Br (stereo not shown) registered its Plant response rating (0 to 100), Johnsongrass at 100

The compound identified as CC(C)(C)c1ccn(C2CCN(c3cccc(OC(F)F)c3)C2=O)n1 (stereo not shown) registered its Plant response rating (0 to 100), Johnsongrass at 100
